- system_under_test: UniProtKB P04150
- method: In Vitro GR Luciferase Reporter Assay (antagonist assay)
- stated_conditions: CHO-K1-GR-MMTV-Luc reporter cells, 10 nM Dexamethasone, 18-24 hours
attribute_measured: IC50

[[record]]
molecule = "Cn1cnc(S(=O)(=O)N(CC(F)(F)F)[C@H]2CCC3=Cc4c(cnn4-c4ccc(F)cc4)C[C@]3(C(=O)c3cc(F)ccn3)C2)n1 [Example 4]"
result = "≤ 100 nM"

[[record]]
molecule = "CC(C)N([C@H]1CCC2=Cc3c(cnn3-c3ccc(F)nc3)C[C@]2(C(=O)c2cc(Cl)ccn2)C1)S(=O)(=O)c1ccn(C)n1 [Example 85]"
result = "≤ 100 nM"

[[record]]
molecule = "Cn1cc(S(=O)(=O)N(C2CC(F)(F)C2)[C@H]2CCC3=Cc4c(cnn4-c4ccc(F)nc4)C[C@]3(C(=O)c3cc(F)ccn3)C2)cn1 [Example 71]"
result = "≤ 100 nM"


====

- system_under_test: GR (Homo sapiens, UniProt P04150)
- Sequence (P04150 whole entry): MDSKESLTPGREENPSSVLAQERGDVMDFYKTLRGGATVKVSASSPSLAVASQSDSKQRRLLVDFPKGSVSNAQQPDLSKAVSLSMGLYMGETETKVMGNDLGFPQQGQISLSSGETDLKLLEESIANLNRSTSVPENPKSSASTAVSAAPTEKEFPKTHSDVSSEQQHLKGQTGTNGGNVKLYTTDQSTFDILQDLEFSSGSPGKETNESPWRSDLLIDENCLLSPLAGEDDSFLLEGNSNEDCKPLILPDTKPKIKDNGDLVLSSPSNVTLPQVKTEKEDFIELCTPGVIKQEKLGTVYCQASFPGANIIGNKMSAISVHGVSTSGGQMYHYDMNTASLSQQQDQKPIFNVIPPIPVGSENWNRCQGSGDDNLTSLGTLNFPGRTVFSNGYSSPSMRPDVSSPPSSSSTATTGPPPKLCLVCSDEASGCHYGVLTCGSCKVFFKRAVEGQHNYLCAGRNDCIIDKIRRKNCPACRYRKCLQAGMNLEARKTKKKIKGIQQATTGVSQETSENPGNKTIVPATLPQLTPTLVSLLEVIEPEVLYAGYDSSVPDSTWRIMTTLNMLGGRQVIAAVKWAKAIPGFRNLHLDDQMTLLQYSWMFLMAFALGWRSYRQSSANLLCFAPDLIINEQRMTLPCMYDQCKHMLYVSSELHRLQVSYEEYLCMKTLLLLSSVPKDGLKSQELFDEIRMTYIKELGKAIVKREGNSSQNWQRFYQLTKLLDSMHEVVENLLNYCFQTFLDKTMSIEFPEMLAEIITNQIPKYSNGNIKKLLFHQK
- method: In Vitro GR Luciferase Reporter Assay (antagonist assay)
- stated_conditions: CHO-K1-GR-MMTV-Luc reporter cells, 10 nM Dexamethasone, 18-24 hours
pIC50: −log10 of the molar value.
attribute_measured: pIC50

[[record]]
smiles_input = "CC(C)N([C@H]1CCC2=Cc3c(cnn3-c3ccc(F)nc3)C[C@]2(C(=O)c2cc(C(F)(F)F)ccn2)C1)S(=O)(=O)c1ncn(C)n1"
system_under_test = "GR (Homo sapiens, UniProt P04150)"
result = "≥ 7.00"

[[record]]
smiles_input = "Cn1cc(S(=O)(=O)N[C@H]2CCC3=Cc4c(cnn4-c4ccc(F)cc4)C[C@]3(C(=O)c3cc(F)ccn3)C2)cn1"
system_under_test = "GR (Homo sapiens, UniProt P04150)"
result = "6.00 to 7.00"

[[record]]
smiles_input = "Cn1cnc(S(=O)(=O)N(CC(F)(F)F)[C@H]2CCC3=Cc4c(cnn4-c4ccc(F)nc4)C[C@]3(C(=O)c3cc(F)ccn3)C2)n1"
system_under_test = "GR (Homo sapiens, UniProt P04150)"
result = "≥ 7.00"

[[record]]
smiles_input = "C[C@H]([C@H]1CCC2=Cc3c(cnn3-c3ccc(F)cc3)C[C@]2(C(=O)c2ncc(C(C)(C)C)s2)C1)S(=O)(=O)c1cnn(C)c1"
system_under_test = "GR (Homo sapiens, UniProt P04150)"
result = "≥ 7.00"

[[record]]
smiles_input = "O=C(c1cc(F)ccn1)[C@]12Cc3cnn(-c4ccc(F)cc4)c3C=C1CC[C@H](N(C1CC(F)(F)C1)S(=O)(=O)c1cn[nH]c1)C2"
system_under_test = "GR (Homo sapiens, UniProt P04150)"
result = "≥ 7.00"

[[record]]
smiles_input = "Cn1cnc(S(=O)(=O)N(C2CC2)[C@H]2CCC3=Cc4c(cnn4-c4ccc(F)cc4)C[C@]3(C(=O)c3csc(C(F)(F)F)n3)C2)n1"
system_under_test = "GR (Homo sapiens, UniProt P04150)"
result = "≥ 7.00"

[[record]]
smiles_input = "Cn1cnc(S(=O)(=O)[C@H]2CCC3=Cc4c(cnn4-c4ccc(F)cc4)C[C@]3(C(=O)c3ccc(F)cn3)C2)n1"
system_under_test = "GR (Homo sapiens, UniProt P04150)"
result = "≥ 7.00"

[[record]]
smiles_input = "CC(C)N([C@H]1CCC2=Cc3c(cnn3-c3ccc(F)cc3)C[C@]2(C(=O)c2cc(C(C)(C)C)ccn2)C1)S(=O)(=O)c1cnn(C)c1"
system_under_test = "GR (Homo sapiens, UniProt P04150)"
result = "≥ 7.00"

[[record]]
smiles_input = "Cn1cnc(S(=O)(=O)N([C@H]2CCC3=Cc4c(cnn4-c4ccc(F)cc4)C[C@]3(C(=O)c3cc(C(F)(F)F)ccn3)C2)[C@H]2C[C@](O)(C(F)(F)F)C2)n1"
system_under_test = "GR (Homo sapiens, UniProt P04150)"
result = "6.00 to 7.00"

[[record]]
smiles_input = "Cn1cc(S(=O)(=O)N(C2CC(F)(F)C2)[C@H]2CCC3=Cc4c(cnn4-c4ccc(F)nc4)C[C@]3(C(=O)c3cc(C(C)(C)C)ccn3)C2)cn1"
system_under_test = "GR (Homo sapiens, UniProt P04150)"
result = "≥ 7.00"


====

In this section we review reported pIC50 values for a set of compounds.
- system_under_test: UniProt:P04150
- method: In Vitro GR Luciferase Reporter Assay (antagonist assay)
- stated_conditions: CHO-K1-GR-MMTV-Luc reporter cells, 10 nM Dexamethasone, 18-24 hours
pIC50: −log10 of the molar value.
attribute_measured: pIC50

[[record]]
smiles_input = "CCN([C@H]1CCC2=Cc3c(cnn3-c3ccc(F)nc3)C[C@]2(C(=O)c2cc(C(F)(F)F)ccn2)C1)S(=O)(=O)c1ncn(C)n1"
result = "≥ 7.00"

[[record]]
smiles_input = "Cn1ccc(S(=O)(=O)C(C)(C)[C@H]2CCC3=Cc4c(cnn4-c4ccc(F)cc4)C[C@]3(C(=O)c3cc(F)ccn3)C2)n1"
result = "≥ 7.00"

[[record]]
smiles_input = "CN(C)C(=O)CN([C@H]1CCC2=Cc3c(cnn3-c3ccc(F)cc3)C[C@]2(C(=O)c2cc(C(F)(F)F)ccn2)C1)S(=O)(=O)c1ccn(C)n1"
result = "≥ 7.00"

[[record]]
smiles_input = "Cn1cc(S(=O)(=O)N(CC(F)F)[C@H]2CCC3=Cc4c(cnn4-c4ccc(F)cc4)C[C@]3(C(=O)c3cc(C(F)(F)F)ccn3)C2)cn1"
result = "≥ 7.00"

[[record]]
smiles_input = "Cn1cc(S(=O)(=O)N(C2CC2)[C@H]2CCC3=Cc4c(cnn4-c4ccc(F)nc4)C[C@]3(C(=O)c3ncc(C(F)(F)F)s3)C2)cn1"
result = "≥ 7.00"

[[record]]
smiles_input = "O=C(c1cc(Cl)ccn1)[C@]12Cc3cnn(-c4ccc(F)cc4)c3C=C1CC[C@H](N(CC(F)F)S(=O)(=O)c1ccc(F)cc1)C2"
result = "≥ 7.00"


====

- system_under_test: GR (Homo sapiens)
- method: In Vitro GR Luciferase Reporter Assay (antagonist assay)
- stated_conditions: CHO-K1-GR-MMTV-Luc reporter cells, 10 nM Dexamethasone, 18-24 hours
pIC50: −log10 of the molar value.
Catalogue of compounds with associated pIC50
attribute_measured: pIC50

[[record]]
smiles_input = "O=C(c1cc(Cl)ccn1)[C@]12Cc3cnn(-c4ccc(F)cc4)c3C=C1CC[C@H](N(C1CC(F)(F)C1)S(=O)(=O)c1ccc(F)cc1)C2"
attribute_measured = "pIC50"
result = "≥ 7.00"

[[record]]
smiles_input = "Cn1cc(S(=O)(=O)N(CC(F)F)[C@H]2CCC3=Cc4c(cnn4-c4ccc(F)cc4)C[C@]3(C(=O)c3ncc(C(F)(F)F)s3)C2)cn1"
attribute_measured = "pIC50"
result = "≥ 7.00"

[[record]]
smiles_input = "Cn1ccc(S(=O)(=O)C(C)(C)[C@H]2CCC3=Cc4c(cnn4-c4ccc(F)cc4)C[C@]3(C(=O)c3cc(C(F)(F)F)ccn3)C2)n1"
attribute_measured = "pIC50"
result = "≥ 7.00"


====

Quick reference for IC50 among some compounds
- system_under_test: GR (Homo sapiens, UniProt P04150)
- method: In Vitro GR Luciferase Reporter Assay (antagonist assay)
- stated_conditions: CHO-K1-GR-MMTV-Luc reporter cells, 10 nM Dexamethasone, 18-24 hours
attribute_measured: IC50

[[record]]
smiles_input = "Cn1cc(S(=O)(=O)N(C2CC2)[C@H]2CCC3=Cc4c(cnn4-c4ccc(F)nc4)C[C@]3(C(=O)c3cc(C(F)(F)F)ccn3)C2)cn1"
result = "≤ 100 nM"

[[record]]
smiles_input = "Cn1cnc(S(=O)(=O)N(C2CC2)[C@H]2CCC3=Cc4c(cnn4-c4ccc(F)nc4)C[C@]3(C(=O)c3cc(C(F)(F)F)ccn3)C2)n1"
result = "≤ 100 nM"

[[record]]
smiles_input = "Cn1cnc(S(=O)(=O)N(C2CC2)[C@H]2CCC3=Cc4c(cnn4-c4ccc(F)cn4)C[C@]3(C(=O)c3cc(C(F)(F)F)ccn3)C2)n1"
result = "≤ 100 nM"

[[record]]
smiles_input = "Cn1cc(S(=O)(=O)N(CCF)[C@H]2CCC3=Cc4c(cnn4-c4ccc(F)cc4)C[C@]3(C(=O)c3cc(F)ccn3)C2)cn1"
result = "≤ 100 nM"

[[record]]
smiles_input = "CC(C)N([C@H]1CCC2=Cc3c(cnn3-c3ccc(F)cc3)C[C@]2(C(=O)c2ncc(C(C)(C)C)s2)C1)S(=O)(=O)c1cnn(C)c1"
result = "≤ 100 nM"

[[record]]
smiles_input = "O=C(c1cc(F)ccn1)[C@]12Cc3cnn(-c4ccc(F)cc4)c3C=C1CC[C@H](N(CC(F)(F)F)S(=O)(=O)c1ccc(F)cc1)C2"
result = "≤ 100 nM"


====

- system_under_test: GR (Homo sapiens, UniProt P04150)
- method: In Vitro GR Luciferase Reporter Assay (antagonist assay)
- stated_conditions: CHO-K1-GR-MMTV-Luc reporter cells, 10 nM Dexamethasone, 18-24 hours
Measured IC50 of individual entries
attribute_measured: IC50

[[record]]
smiles_input = "Cn1ncnc1S(=O)(=O)[C@H]1CCC2=Cc3c(cnn3-c3ccc(F)cc3)C[C@]2(C(=O)c2cc(C(F)(F)F)ccn2)C1"
attribute_measured = "IC50"
result = "≤ 0.1 µM"

[[record]]
smiles_input = "Cn1cnc(S(=O)(=O)N([C@H]2CCC3=Cc4c(cnn4-c4ccc(F)cc4)C[C@]3(C(=O)c3cc(Cl)ccn3)C2)[C@H]2C[C@](O)(C(F)(F)F)C2)n1"
attribute_measured = "IC50"
result = "≤ 0.1 µM"

[[record]]
smiles_input = "CC(C)N([C@H]1CCC2=Cc3c(cnn3-c3ccc(F)cc3)C[C@]2(C(=O)c2cc(F)ccn2)C1)S(=O)(=O)c1ncn(C)n1"
attribute_measured = "IC50"
result = "≤ 0.1 µM"

